pIC50: −log10 of the molar value.
Assay read-out pIC50 on Aromatase (Homo sapiens, UniProt P11511); records merged from the literature.
Sequence (P11511 whole entry): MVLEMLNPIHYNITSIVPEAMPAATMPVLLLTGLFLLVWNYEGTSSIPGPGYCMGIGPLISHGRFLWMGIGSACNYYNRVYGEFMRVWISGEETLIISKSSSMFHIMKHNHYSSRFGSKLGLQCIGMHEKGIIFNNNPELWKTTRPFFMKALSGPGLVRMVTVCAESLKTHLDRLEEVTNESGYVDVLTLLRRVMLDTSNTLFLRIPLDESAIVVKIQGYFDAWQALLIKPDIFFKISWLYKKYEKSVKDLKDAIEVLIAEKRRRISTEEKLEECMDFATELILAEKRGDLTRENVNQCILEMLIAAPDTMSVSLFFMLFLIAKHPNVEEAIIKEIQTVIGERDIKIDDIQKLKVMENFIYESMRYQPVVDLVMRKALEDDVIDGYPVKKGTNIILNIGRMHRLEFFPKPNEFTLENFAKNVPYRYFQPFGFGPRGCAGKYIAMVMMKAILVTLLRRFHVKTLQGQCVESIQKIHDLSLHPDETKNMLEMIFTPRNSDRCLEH
readout label: pIC50

INSERT INTO results (mol_smiles, readout_label, meas_value) VALUES
  ('Oc1ccc2c(c1)CCC(Cc1ccncc1)=C2', 'pIC50', 5.46),
  ('COc1ccc2c(c1)CCC(Cc1ccncc1)=C2', 'pIC50', 6.10),
  ('C[C@]12CCCC=C1[C@@H]1[C@H]([C@@H]3[C@@H]2CC[C@]2(C)C(=O)OCC[C@@H]32)C1(F)F', 'pIC50', 5.89),
  ('COc1ccc2c(c1)CCC(Cc1c[nH]cn1)=C2', 'pIC50', 5.74),
  ('COc1cccc2c1CCC(Cc1ccncc1)=C2C', 'pIC50', 6.42),
  ('CC1=C(Cc2cccnc2)CCc2ccc(O)cc21', 'pIC50', 5.19),
  ('CN(C)c1nc(-n2ccnc2)nc(-n2ccnc2)n1', 'pIC50', 6.26),
  ('CN(C)c1nc(N2CCCC2)nc(-n2ccnc2)n1', 'pIC50', 5.89),
  ('c1ccc(N2CCN(c3nc(-n4ccnc4)nc(-n4ccnc4)n3)CC2)cc1', 'pIC50', 6.66),
  ('Fc1ccc(N2CCN(c3nc(N4CCOCC4)nc(-n4ccnc4)n3)CC2)cc1', 'pIC50', 7.70);
